experiment: Plasma pharmacokinetics after IV or PO administration; type: in vivo, SD Rat; conditions: Sprague-Dawley, rat, plasma, iv, 40 mg/kg, SD Rat, IV 40 mg/kg; read-out: T1/2, Mean (converted)
RECORDED METRIC: half-life

Measured half-life of Cc1ccc(=O)n(-c2ccccc2)c1 [Pirfenidone, 5 methyl-1-phenyl-2-[H] pyridone] : 21.4 min

* * *

assay: Plasma pharmacokinetics after IV or PO administration; assay type: in vivo, SD Rat; details: Sprague-Dawley, rat, plasma, po, 40 mg/kg, SD Rat, PO 40 mg/kg, individual rats 7-9; read-out: MRTINF
RECORDED METRIC: MRT inf (min)
Give bare numbers, in min.

Consider Cc1ccc(=O)n(-c2ccccc2)c1 [Pirfenidone, 5 methyl-1-phenyl-2-[H] pyridone] . Its measured MRT inf is 52

* * *

assay: Plasma pharmacokinetics after IV or PO administration; type: in vivo, SD Rat; settings: Sprague-Dawley, rat, plasma, iv, 40 mg/kg, SD Rat, IV 40 mg/kg, 0.5 h, individual rats 1-3; read-out: Plasma concentrations of Pirfenidone
RECORDED METRIC: concentration at 0.5 h (ng/mL)
One number for each entry, in ng/mL.

// Cc1ccc(=O)n(-c2ccccc2)c1 [Pirfenidone, 5 methyl-1-phenyl-2-[H] pyridone] : concentration at 0.5 h value = 15800

* * *

test: Plasma pharmacokinetics after IV or PO administration; format: in vivo, SD Rat; conditions: Sprague-Dawley, rat, plasma, po, 40 mg/kg, SD Rat, PO 40 mg/kg, 1 h, individual rats 7-9; read-out: Plasma concentrations of Pirfenidone
RECORDED METRIC: concentration at 1 h (ng/mL)
Give bare numbers, in ng/mL.

concentration at 1 h for Cc1ccc(=O)n(-c2ccccc2)c1 [Pirfenidone, 5 methyl-1-phenyl-2-[H] pyridone] is 5110

* * *

experiment: Plasma pharmacokinetics after IV or PO administration; format: in vivo, SD Rat; conditions: Sprague-Dawley, serum; SD Rat, PO 40 mg/kg; read-out: Tmax, Mean
RECORDED METRIC: Tmax (min)
Give bare numbers, in min.

Recorded Tmax (compound Cc1ccc(=O)n(-c2ccccc2)c1 [Pirfenidone, 5 methyl-1-phenyl-2-[H] pyridone] ): 15

* * *

experiment: Plasma pharmacokinetics after IV or PO administration; type: in vivo, SD Rat; settings: Sprague-Dawley, serum; SD Rat, PO 40 mg/kg vs IV 40 mg/kg
RECORDED METRIC: bioavailability (%)
Answers are plain numbers, in %.

bioavailability for Cc1ccc(=O)n(-c2ccccc2)c1 [Pirfenidone, 5 methyl-1-phenyl-2-[H] pyridone] is 22.6

* * *

experiment: Plasma pharmacokinetics after IV or PO administration; format: in vivo, SD Rat; conditions: Sprague-Dawley, rat, serum, iv, 40 mg/kg, SD Rat, IV 40 mg/kg, individual rats 1-3; read-out: T1/2 (converted)
RECORDED METRIC: half-life (min)
Numbers only, in min.

// field: half-life; key: Cc1ccc(=O)n(-c2ccccc2)c1 [Pirfenidone, 5 methyl-1-phenyl-2-[H] pyridone] ; value = 30

* * *

test: Plasma pharmacokinetics after IV or PO administration; assay type: in vivo, SD Rat; conditions: Sprague-Dawley, rat, plasma, po, 40 mg/kg, SD Rat, PO 40 mg/kg, 2 h; read-out: Plasma concentrations of Pirfenidone, Mean
RECORDED METRIC: concentration at 2 h (ng/mL)
Answers are plain numbers, in ng/mL.

The reported value for Cc1ccc(=O)n(-c2ccccc2)c1 [Pirfenidone, 5 methyl-1-phenyl-2-[H] pyridone] in terms of concentration at 2 h is 1780
